These entries and their values trace back to the OPERA property sets (Mansouri et al. 2018).

Settings: pH 7.0; 25 °C
REPORTED ENDPOINT: solubility (µM)
Expressed in µM, but write only the number.

INPUT: # get_value(readout='solubility', item= OC(c1ccc(F)cc1)(c1cncnc1)c1ccccc1Cl (stereo unspecified) )
OUTPUT: 82.6

====

# label = Criterion met if logP >= 5 else Criterion not met

INPUT: Form field: logP at least 5? Entry: CC(C)(C)c1ccc(CSc2cnn(C(C)(C)C)c(=O)c2Cl)cc1
OUTPUT: Criterion met

====

Details: 30 °C
REPORTED ENDPOINT: solubility (µM)
Give just the number in µM; leave the unit off.

INPUT: Query (molecule): O=C(Nc1ccc(Cl)cc1C(O)c1ccccc1)c1ccncc1 (stereo unspecified) ; field requested: solubility
OUTPUT: 2.95

====

Measured solubility accompanies every entry in the list below.
Report the figure in mM without appending any unit label.

Example results:
>>> result_value("S=C([S-])NCCNC(=S)[S-].[Na+].[Na+]")
780
>>> result_value("N=C(N)NCCCCCCCCNCCCCCCCCNC(=N)N")
2150
>>> result_value("O=C1c2ccccc2C(=O)C1C(=O)C(c1ccccc1)c1ccccc1")
0.000881

Could you now look at the following compound, please?
INPUT: Record request: solubility value, item O=C(O)COc1ccc(Cl)cc1CO
OUTPUT: 9.23

====

Settings: 22 °C
REPORTED ENDPOINT: solubility (µM)
Lab book: enter the figure in µM, no units written.

INPUT: Consider the compound shown here: CC(C)c1ccc(NC(=O)N(C)C)cc1 What is its recorded solubility?
OUTPUT: 291

====

Decision: logP compared against 3; not below it gives MET, below it gives NOT MET.

Sample answers from the record:
>>> assigned_category("CCCSP(=S)(OCC)Oc1ccc(Cl)cc1Cl (stereo not given)")
"MET"
>>> assigned_category("CN(C)C(O)=Nc1ccc(-n2nc(C(C)(C)C)oc2=O)c(Cl)c1")
"NOT MET"
>>> assigned_category("Clc1ccccc1-c1nnc(-c2ccccc2Cl)nn1")
"MET"
>>> assigned_category("C#CCC1=C(C)C(OC(=O)C2C(C=C(C)C)C2(C)C)CC1=O (stereo not given)")
"MET"
>>> assigned_category("CC1(C)CNC(=NN=C(/C=C/c2ccc(C(F)(F)F)cc2)/C=C/c2ccc(C(F)(F)F)cc2)NC1")
"NOT MET"

INPUT: Hi team, for Cc1cnc(C2=NC(=O)C(C)(C(C)C)N2)c(C(=O)O)c1 (stereo not given) , is the recorded logP at or above 3?
OUTPUT: NOT MET

INPUT: # repeat for CS(=O)(=O)NC(=O)c1cc(Oc2ccc(C(F)(F)F)cc2Cl)ccc1[N+](=O)[O-]
OUTPUT: NOT MET

INPUT: How about Cc1nc(N(C)C)nc(OC(=O)N(C)C)c1C ?
OUTPUT: NOT MET

INPUT: Input O=C(NC(=O)c1c(F)cccc1F)Nc1ccc(Cl)c(Oc2ncc(C(F)(F)F)cc2Cl)c1
OUTPUT: MET

INPUT: Try the compound CCCOC(=O)c1ccc(C(=O)OCCC)nc1
OUTPUT: MET

INPUT: Can you handle CCOS(=O)(=O)c1ccc2c(c1)C(C)(C)CO2 next?
OUTPUT: NOT MET

INPUT: Moving on to CCOP(=S)(NC(C)CC)Oc1cc(C)ccc1[N+](=O)[O-] (stereo not given)
OUTPUT: MET

INPUT: Subsequent entry: N#Cc1c[nH]cc1-c1cccc(Cl)c1Cl
OUTPUT: MET

INPUT: Ok, now CCOC(=O)Cn1c(=O)sc2cccc(Cl)c21
OUTPUT: NOT MET

INPUT: And for CN(C)C(=O)SCCCCOc1ccccc1 ?
OUTPUT: MET

INPUT: Please answer likewise for O=C1C(Cl)C(CCl)CN1c1cccc(C(F)(F)F)c1 (stereo not given)
OUTPUT: MET

INPUT: Same again, this time with CNC(=O)N(C)c1nc2ccccc2s1
OUTPUT: NOT MET
